experiment: in vivo; conditions: female, F1 CBAxC57B1 hybrids, mouse, iv, total radioactivity

# compound, tissue to tissue ratio at 0.5 h
data = [
    ("C[C@@H](O)[C@H](NC(=O)[C@@H]1CSSC[C@H](NC(=O)[C@H](CCCCN)NC(=O)CN2CCN(CC(=O)O)CCN(CC(=O)O)CCN(CC(=O)O)CC2)C(=O)N[C@@H](Cc2ccc(O)cc2)C(=O)N[C@H](Cc2c[nH]c3ccccc23)C(=O)N[C@@H](CCCCN)C(=O)N[C@@H]([C@@H](C)O)C(=O)N1)C(=O)O [1a, marked ^68Ga, metal not drawn]", 2.4),
]

---

assay: potency distribution in mice with tangled B16 melanoma after IV administration (direct radiometry of organs and tissues); settings: female, F1 CBAxC57B1 hybrids, mouse, tumour and muscle, iv, total radioactivity
endpoint.name: tissue to tissue ratio at 1 h

# compound, quantitative.result
measured = [
    ("C[C@@H](O)[C@H](NC(=O)[C@@H]1CSSC[C@H](NC(=O)[C@@H](N)CCCCNC(=O)CN2CCN(CC(=O)O)CCN(CC(=O)O)CCN(CC(=O)O)CC2)C(=O)N[C@@H](Cc2ccc(O)cc2)C(=O)N[C@H](Cc2c[nH]c3ccccc23)C(=O)N[C@@H](CCCCN)C(=O)N[C@@H]([C@@H](C)O)C(=O)N1)C(=O)O [Compound 1b]", 20),
]
